Sourced from ChEMBL document CHEMBL1157872

These compounds were tested on Nucleic Acid; ΔTm is the recorded read-out.
Form entry: enter the amount, then its unit.

Consider the reported ΔTm for these compounds:
c1cc(-c2ccc(-c3ccc(C4=NCCN4)cc3)o2)ccc1C1=NCCN1
11.4 °C
Cn1cc(NC(=O)c2cc(NC(=O)CNC(=N)N)cn2C)cc1C(=O)NCCC(=N)N
31 °C
CCCCNC(=N)c1ccc(OCCOCCOc2ccc(C(=N)NCCCC)cc2)cc1
3.84 °C
CCCNC(=N)c1ccc(-c2ccc(-c3ccc(C(=N)NCCC)cc3)o2)cc1
13 °C

Now let's try a different one.
Query N=C(NC1CCCCC1)c1ccc(OCCOCCOc2ccc(C(=N)NC3CCCCC3)cc2)cc1 yields ΔTm of 5.08 °C

* * *

Test system: Nucleic Acid
Decide using ΔTm alone. Strictly below 5 °C: 1 (yes). Equal to or above 5 °C: 0 (no).

Solved cases below.
N=C(N)c1ccc(NCCNCCNc2ccc(C(=N)N)cc2)cc1
0 (no)
COc1cc(C(=N)N)cc(OC)c1OCCCCCOc1c(OC)cc(C(=N)N)cc1OC
1 (yes)

Prompt: Find out if reported ΔTm for CCN1CCN=C1c1ccc(-c2ccc(-c3ccc(C4=NCCN4CC)cc3)o2)cc1 is less than 5 °C
Response: 1 (yes)

Prompt: Criterion: ΔTm strictly below 5 °C. Is it met by N=C(N)c1ccc(-c2ccc(-c3ccc(C(=N)N)cc3)o2)cc1 ?
Response: 0 (no)

Prompt: ΔTm under 5 °C? Item: CN(CCCCCN(C)c1ccc(C(=N)N)cc1)c1ccc(C(=N)N)cc1
Response: 1 (yes)

Prompt: Hello, is ΔTm of the following compound strictly smaller than 5 °C? N=C(N)c1ccc(OCCCCCOc2ccc(C(=N)N)cc2)cc1
Response: 1 (yes)

Prompt: # strict comparison: is reported ΔTm < 5 °C? input = N=C(N)c1ccc(OCCOCCOc2ccc(C(=N)N)cc2)cc1
Response: 1 (yes)

* * *

Tested on: Nucleic Acid
Test: Binding affinity to d(CGCGATATCGCG)2 dodecamer assessed as change in melting temperature
Type: nucleic-acid assay
readoutName: ΔTm

N=C(N)c1ccc(NCCNCCNc2ccc(C(=N)N)cc2)cc1
5.48 °C

Per the records, this compound ( N=C(N)c1ccc(OCCCCCOc2ccc(C(=N)N)cc2)cc1 ) has ΔTm equal to 6.58 °C

Sure, the documented ΔTm for N=C(NC1CCCCC1)c1ccc(OCCOCCOc2ccc(C(=N)NC3CCCCC3)cc2)cc1 is 4.3 °C

Noted for CCCCNC(=N)c1ccc(OCCOCCOc2ccc(C(=N)NCCCC)cc2)cc1 : its ΔTm reads 3.3 °C

The measured ΔTm associated with N=C(N)c1ccc(OCCOCCOc2ccc(C(=N)N)cc2)cc1 reads 4.2 °C

Value of measured ΔTm for the entry N=C(N)c1ccc(/N=N/Nc2ccc(C(=N)N)cc2)cc1 : 11.9 °C

Query COc1cc(C(=N)N)cc(OC)c1OCCCCCOc1c(OC)cc(C(=N)N)cc1OC yields ΔTm of 2.55 °C

Looking up CN(CCCCCN(C)c1ccc(C(=N)N)cc1)c1ccc(C(=N)N)cc1 , I see its ΔTm listed as 1.1 °C
